# EXPERIMENTAL SYSTEM: PiB binding site on amyloid-β in AD brain tissue homogenates (Homo sapiens)
# Sequence (P05067 672-713 limits assumed): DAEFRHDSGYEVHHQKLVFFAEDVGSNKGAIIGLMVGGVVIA
# ASSAY DETAILS: In vitro competition (Ki) assay versus [^3H]PiB, AD brain tissue homogenate
# CONDITION PARAMETERS: radioligand [^3H]PiB
Let's look at some compounds and their measured Ki.
Answer in µM, number only, no unit symbol.

Reference set, count: 2
Fc1ccc2cc(-c3ccc(N4CCCCC4)nc3)[nH]c2c1 : 0.07
Fc1ccc2cc(-c3cnc(N4CCCCC4)nc3)[nH]c2c1 : 0.049

Moving on to another compound below.
-- ask If you can, please state the reported Ki value of Fc1ccc2cc(-c3ccc(N4CCOCC4)nc3)[nH]c2c1 .
-- reply 0.053
